Tested on: Kidney
assay.details: Biodistribution in ICR mouse kidney at 5 to 10 uCi, iv after 30 mins
Format: ADME, organism-based
assay.conditions: in vivo, 0.5 h
parameter.measured: Drug uptake (% ID/g)

Known Drug uptake results, listed for orientation:
{"columns": ["item.smiles", "measured.target", "Drug uptake, % ID/g"],
 "data": [
  ["CN(C)c1ccc(-c2cn(-c3ccc([125I])cc3)nn2)cc1", "Kidney", 3.66],
  ["CN(C)c1ccc(-c2cn(-c3ccc(OCCC[18F])cc3)nn2)cc1", "Kidney", 3.68]
]}

1 = CNc1ccc(-c2cn(-c3ccc([125I])cc3)nn2)cc1
2 = CN(C)c1ccc(-c2cn(-c3ccc(OCC[18F])cc3)nn2)cc1
*Q* Returns the identifier with the smallest measured Drug uptake among 1 and 2 . The response must carry the label of the picked entry.
*A* 2
